Hey, just so you know, these numbers are from paper PMC8131632.

- ASSAYED TARGET: SARS-CoV-2 spike receptor binding domain (RBD), Avi-tagged and biotinylated (SARS-CoV-2, UniProt P0DTC2 319-541, biotin (Avi tag, by BirA))
- MEASUREMENT NOTES: ELISA
QUANTITY: pIC50
Worth noting: pIC50 values are minus log10 of concentrations stated in mol/L.

Please review the entries below; each comes with its answer.
| BINDER | TEST RESULT |
| --- | --- |
| REGN10987 Fab-TD (Fab, V domains shown) VH: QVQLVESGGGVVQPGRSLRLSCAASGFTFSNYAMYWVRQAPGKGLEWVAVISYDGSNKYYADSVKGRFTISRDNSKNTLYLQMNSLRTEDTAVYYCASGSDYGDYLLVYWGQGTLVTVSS VL: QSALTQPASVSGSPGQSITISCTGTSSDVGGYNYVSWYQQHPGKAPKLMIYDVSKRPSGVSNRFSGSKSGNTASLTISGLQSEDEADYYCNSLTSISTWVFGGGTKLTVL | 10.70 |
| REGN10933 Fab-TD (Fab, V domains shown) VH: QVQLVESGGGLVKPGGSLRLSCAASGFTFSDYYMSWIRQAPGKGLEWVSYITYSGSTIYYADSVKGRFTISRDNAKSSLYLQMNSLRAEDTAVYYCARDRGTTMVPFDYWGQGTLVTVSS VL: DIQMTQSPSSLSASVGDRVTITCQASQDITNYLNWYQQKPGKAPKLLIYAASNLETGVPSRFSGSGSGTDFTFTISGLQPEDIATYYCQQYDNLPLTFGGGTKVEIK | 10.92 |
| REGN10987 Ig-TD (antibody, V domains shown) VH: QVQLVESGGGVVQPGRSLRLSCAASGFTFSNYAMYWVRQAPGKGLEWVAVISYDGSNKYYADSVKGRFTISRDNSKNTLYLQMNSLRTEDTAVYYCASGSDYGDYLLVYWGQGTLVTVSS VL: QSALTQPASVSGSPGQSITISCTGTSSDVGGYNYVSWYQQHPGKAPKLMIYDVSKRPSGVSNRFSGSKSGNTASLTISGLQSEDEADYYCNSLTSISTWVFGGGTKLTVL | 9.92 |

// next item, pIC50 requested
Entry REGN10933 mIg-TD (antibody, V domains shown) VH: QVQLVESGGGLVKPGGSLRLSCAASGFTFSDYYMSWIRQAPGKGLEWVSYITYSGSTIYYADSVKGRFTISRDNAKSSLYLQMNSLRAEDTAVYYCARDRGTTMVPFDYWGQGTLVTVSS VL: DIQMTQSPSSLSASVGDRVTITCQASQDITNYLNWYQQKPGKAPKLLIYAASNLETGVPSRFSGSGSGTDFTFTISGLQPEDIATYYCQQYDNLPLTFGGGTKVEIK ; pIC50 = 9.74
